Target or test system: IKZF2 (Homo sapiens, UniProt Q96SW2+Q9UKS7)
Sequence (Q9UKS7 whole entry): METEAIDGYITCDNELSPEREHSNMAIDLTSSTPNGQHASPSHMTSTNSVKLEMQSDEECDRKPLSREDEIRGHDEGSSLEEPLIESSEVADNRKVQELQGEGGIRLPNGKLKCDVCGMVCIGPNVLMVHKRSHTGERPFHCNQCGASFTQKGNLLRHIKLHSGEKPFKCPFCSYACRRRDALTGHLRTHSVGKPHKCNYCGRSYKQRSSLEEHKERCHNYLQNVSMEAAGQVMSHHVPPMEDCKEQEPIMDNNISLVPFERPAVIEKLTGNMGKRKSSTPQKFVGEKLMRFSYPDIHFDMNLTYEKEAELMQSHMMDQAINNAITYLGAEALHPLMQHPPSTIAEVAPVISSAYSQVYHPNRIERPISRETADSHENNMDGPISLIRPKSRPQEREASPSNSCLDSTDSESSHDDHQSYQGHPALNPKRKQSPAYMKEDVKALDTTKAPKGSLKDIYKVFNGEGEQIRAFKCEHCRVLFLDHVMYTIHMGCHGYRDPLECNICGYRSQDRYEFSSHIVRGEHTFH
Sequence (Q96SW2 whole entry): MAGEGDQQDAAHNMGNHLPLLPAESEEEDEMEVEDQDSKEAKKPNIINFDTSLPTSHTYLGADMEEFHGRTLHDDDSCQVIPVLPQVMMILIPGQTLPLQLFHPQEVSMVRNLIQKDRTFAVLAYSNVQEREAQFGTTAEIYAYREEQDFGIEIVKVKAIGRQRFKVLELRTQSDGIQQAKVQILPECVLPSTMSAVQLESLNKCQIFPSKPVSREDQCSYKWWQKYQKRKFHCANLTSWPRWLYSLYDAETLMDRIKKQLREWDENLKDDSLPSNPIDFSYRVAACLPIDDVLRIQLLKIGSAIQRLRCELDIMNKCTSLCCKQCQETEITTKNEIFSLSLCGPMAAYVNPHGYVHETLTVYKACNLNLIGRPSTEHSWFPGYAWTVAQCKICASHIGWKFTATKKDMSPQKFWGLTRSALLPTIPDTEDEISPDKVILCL
Sequence (Q16531 whole entry partner): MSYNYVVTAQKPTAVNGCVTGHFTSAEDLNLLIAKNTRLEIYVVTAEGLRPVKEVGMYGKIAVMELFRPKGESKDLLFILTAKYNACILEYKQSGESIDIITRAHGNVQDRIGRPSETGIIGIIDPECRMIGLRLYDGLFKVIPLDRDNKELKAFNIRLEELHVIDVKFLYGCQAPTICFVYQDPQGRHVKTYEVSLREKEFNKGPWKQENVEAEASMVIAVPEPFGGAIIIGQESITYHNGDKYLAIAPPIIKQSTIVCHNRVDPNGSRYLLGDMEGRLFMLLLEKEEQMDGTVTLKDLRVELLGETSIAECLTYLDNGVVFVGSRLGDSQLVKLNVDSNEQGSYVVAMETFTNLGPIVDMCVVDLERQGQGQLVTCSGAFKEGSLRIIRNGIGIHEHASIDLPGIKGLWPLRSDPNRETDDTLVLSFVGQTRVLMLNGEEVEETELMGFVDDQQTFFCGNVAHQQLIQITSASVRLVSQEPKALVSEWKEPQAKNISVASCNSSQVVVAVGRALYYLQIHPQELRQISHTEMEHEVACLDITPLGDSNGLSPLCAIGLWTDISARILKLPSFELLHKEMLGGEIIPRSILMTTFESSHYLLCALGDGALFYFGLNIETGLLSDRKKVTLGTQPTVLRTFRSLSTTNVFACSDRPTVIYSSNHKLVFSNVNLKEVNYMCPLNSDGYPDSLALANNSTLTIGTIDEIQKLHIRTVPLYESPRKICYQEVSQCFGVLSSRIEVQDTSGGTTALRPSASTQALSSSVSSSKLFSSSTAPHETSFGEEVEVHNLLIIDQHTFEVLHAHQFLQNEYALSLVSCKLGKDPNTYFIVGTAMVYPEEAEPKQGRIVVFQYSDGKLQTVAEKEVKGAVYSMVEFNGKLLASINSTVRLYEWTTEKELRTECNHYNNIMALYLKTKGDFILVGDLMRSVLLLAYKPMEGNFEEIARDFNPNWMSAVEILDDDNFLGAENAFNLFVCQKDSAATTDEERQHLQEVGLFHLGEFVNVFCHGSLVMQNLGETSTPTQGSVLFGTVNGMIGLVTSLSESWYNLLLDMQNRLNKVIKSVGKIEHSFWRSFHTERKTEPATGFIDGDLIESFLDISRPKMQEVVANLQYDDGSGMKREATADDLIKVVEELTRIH
Assay protocol: Prolabel quantification of IKZF2 protein levels in 293GT cells
Type: cell-based
Measurement context: 24 h, 10 μM, 24 h, 293GT cells; read-out: IKZF2 % protein reduction at 10 μM, 24 h
Value type: inhibition at 10 µM (%)
Answer in %, number only, no unit symbol.

| Molecule | Endpoint result |
| --- | --- |
| O=C1CCC(N2Cc3cc(C4CCN(Cc5ccc6ccc(F)cc6n5)CC4)ccc3C2=O)C(=O)N1 (stereo not drawn) | 70 |
| CN1CCN(Cc2cc(CN3CCC(c4ccc5c(c4)CN(C4CCC(=O)NC4=O)C5=O)CC3)ccc2O)CC1 (stereo not drawn) | 70 |

Turning to the following molecule.
Record COc1ccccc1CN1CCC(c2ccc3c(c2)CN(C2CCC(=O)NC2=O)C3=O)CC1 (stereo not drawn) has IKZF2 (Homo sapiens, UniProt Q96SW2+Q9UKS7) inhibition at 10 µM equal to 70

====

Target or test system: IKZF2 (Homo sapiens, UniProt Q96SW2+Q9UKS7)
Assay protocol: Prolabel quantification of IKZF2 protein levels in 293GT cells
Assay type: cell-based
Measurement context: 24 h, 10 μM, 24 h, 293GT cells; read-out: IKZF2 % protein reduction at 10 μM, 24 h
Protocol: The Prolabel system from DiscoverX was used to develop high-throughput and quantitative assays to measure changes in IKZF1, IKZF2 and GSPT1 protein levels in response to compounds. […] The complementary fragment of beta-galactosidase (from DiscoverX), is added to the prolabel tag to form an active beta galactosidase enzyme whose activity can be precisely measured. In this way, the levels of a fusion protein with the prolabel tag can be quantified in cell lysates. […]
Value type: inhibition at 10 µM (%)
All answers are understood in %, so give the number only.

| Compound | inhibition at 10 µM, % |
| --- | --- |
| CN(C)S(=O)(=O)c1cccc(CN2CCC(c3ccc4c(c3)CN(C3CCC(=O)NC3=O)C4=O)CC2)c1 (stereo not drawn) | 80 |

Noted for O=C1CCC(N2Cc3cc(C4CCN(Cc5cnc6cnccn56)CC4)ccc3C2=O)C(=O)N1 (stereo not drawn) : its inhibition at 10 µM reads 60

inhibition at 10 µM reading for O=C1CCC(N2Cc3cc(C4CCN(Cc5cc(-c6ccccn6)n[nH]5)CC4)ccc3C2=O)C(=O)N1 (stereo not drawn) : 75

Notebook: O=C1CCC(N2Cc3cc(C4CCN(Cc5ccc(F)cc5F)CC4)ccc3C2=O)C(=O)N1 (stereo not drawn) , inhibition at 10 µM read as 60

Reported inhibition at 10 µM of Cn1nc(CN2CCC(c3ccc4c(c3)CN(C3CCC(=O)NC3=O)C4=O)CC2)c2ccccc21 (stereo not drawn) : 50

====

Target or test system: IKZF2 (Homo sapiens, UniProt Q96SW2+Q9UKS7)
Assay protocol: Prolabel quantification of IKZF2 protein levels in 293GT cells
Type: cell-based
Measurement context: Prolabel assay, 293GT cells; read-out: IKZF2 EC50
Value type: log10 of DC50 (log10 of the value in µM)
// stored as log10 of DC50 expressed in µM

These solved cases illustrate the format of a correct answer.
| Molecule | log10 of DC50 |
| --- | --- |
| O=C1CCC(N2Cc3cc(C4CCN(Cc5ccccc5C5CC5)CC4)ccc3C2=O)C(=O)N1 (stereo not shown) | -2.30 |
| Cc1ccc2nc(CN3CCC(c4ccc5c(c4)CN(C4CCC(=O)NC4=O)C5=O)CC3)cc(=O)n2c1 (stereo not shown) | -1.44 |

Record Cn1ncc(CN2CCC(c3ccc4c(c3)CN(C3CCC(=O)NC3=O)C4=O)CC2)c1N (stereo not shown) . Reported log10 of DC50: 0.99

Record CCn1ccc(CN2CCC(c3ccc4c(c3)CN(C3CCC(=O)NC3=O)C4=O)CC2)n1 (stereo not shown) , field log10 of DC50: -1.21

For record CCc1ccc(CN2CCC(c3ccc4c(c3)CN(C3CCC(=O)NC3=O)C4=O)CC2)cc1 (stereo not shown) the listed log10 of DC50 is -2.05

log10 of DC50 reading for O=C1CCC(N2Cc3cc(C4CCN(Cc5ccc(OC(F)(F)F)cc5)CC4)ccc3C2=O)C(=O)N1 (stereo not shown) : -1.82

Looking up O=C1CCC(N2Cc3cc(C4CCN(Cc5csc(-c6ccccc6)n5)CC4)ccc3C2=O)C(=O)N1 (stereo not shown) , I found its log10 of DC50 recorded as -1.62

log10 of DC50 reported for this molecule O=C1CCC(N2Cc3cc(C4CCN(Cc5cccc6[nH]ncc56)CC4)ccc3C2=O)C(=O)N1 (stereo not shown) : -1.92

get_value(item= COC(=O)c1coc(CN2CCC(c3ccc4c(c3)CN(C3CCC(=O)NC3=O)C4=O)CC2)n1 (stereo not shown) , readout=log10 of DC50) returns -0.17

Quick note, log10 of DC50 for O=C1CCC(N2Cc3cc(C4CCN(Cc5ccc6c(c5)OC(F)(F)O6)CC4)ccc3C2=O)C(=O)N1 (stereo not shown) landed at -1.89

For this molecule ( O=C1CCC(N2Cc3cc(C4CCN(Cc5ccc6cc[nH]c6n5)CC4)ccc3C2=O)C(=O)N1 (stereo not shown) ), measured log10 of DC50 is -1.72

Briefly, log10 of DC50 measured for O=C1CCC(N2Cc3cc(C4CCN(Cc5ccc(C(=O)O)cc5)CC4)ccc3C2=O)C(=O)N1 (stereo not shown) : 0.65

Notebook: O=C1CCC(N2Cc3cc(C4C[C@H]5CC[C@@H](C4)N5Cc4ccccc4)ccc3C2=O)C(=O)N1 (stereo partly shown) , log10 of DC50 read as -2.30

Cited source: patent US11053218B2
